- Experiment Summary: Tissue distribution study after intravenous administration
- Format: in vivo, Sprague-Dawley rats
- Measurement Setup: Sprague-Dawley, rat, iv; Heart, 2 h, rats, i.v. 5 mg/kg, n = 5
Assay Endpoint: Kp at 2 h

Request: Kp at 2 h lookup needed for `O=C(/C=C/C=C/c1ccccc1)CCc1ccccc1` , thanks.
Result: 0.59

---

- Experiment Summary: Plasma pharmacokinetic study after single intravenous administration
- Type: in vivo
- Measurement Setup: Sprague-Dawley, rat, rats, single i.v. 5 mg/kg, up to 10 h, n = 12
Assay Endpoint: AUC(0-t)
In your response, put the unit directly after the numeric value.

Request: AUC(0-t) lookup needed for `O=C(/C=C/C=C/c1ccccc1)CCc1ccccc1` , thanks.
Result: 6010 ng·h/mL
